Provenance of the data: patent US9273058B2

# TARGET OR SYSTEM: CK1ε (Homo sapiens, UniProt P49674)
# Sequence (P49674 whole entry): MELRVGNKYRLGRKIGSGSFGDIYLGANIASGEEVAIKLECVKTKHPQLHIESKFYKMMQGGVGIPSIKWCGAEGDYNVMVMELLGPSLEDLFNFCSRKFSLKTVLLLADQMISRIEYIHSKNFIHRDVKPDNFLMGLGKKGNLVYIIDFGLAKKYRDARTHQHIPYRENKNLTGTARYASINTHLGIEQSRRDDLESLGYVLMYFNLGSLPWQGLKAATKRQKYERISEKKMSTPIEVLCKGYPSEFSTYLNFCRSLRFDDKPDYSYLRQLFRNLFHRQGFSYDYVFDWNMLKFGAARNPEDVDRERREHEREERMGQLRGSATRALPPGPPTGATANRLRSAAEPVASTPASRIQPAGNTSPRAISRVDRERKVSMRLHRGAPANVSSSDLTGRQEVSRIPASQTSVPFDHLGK
# ASSAY EXPLANATION: CK1ε kinase assay (Caliper LabChip electrophoretic separation of fluoresceinated peptide substrate and product)
# Format: biochemical
# REPORTED CONDITIONS: 200 pM CK1ε, 50 μM ATP, 1.5 μM peptide, 22 hours at room temperature; read-out: CK1ε IC50 range
pIC50: −log10 of the molar value.
Collected pIC50 values appear next to each entry.

NC(=O)c1c(-c2ccc(Cl)c(Cl)c2)nn2c1CN(C(=O)NC1CC(F)(F)C1)C[C@@H]2CF
8.00 to 11.00
NC(=O)c1c(-c2ccc(F)c(Cl)c2)nn2c1CN(C(=O)NC13CCC(CF)(CC1)C3)CC2
8.00 to 11.00
CC1(NC(=O)N2CCn3nc(-c4cccc(Cl)c4)c(C(N)=O)c3C2)CC2(CC2)C1
8.00 to 11.00
NC(=O)c1c(-c2cccc(F)c2)nn2c1CN(C(=O)Nc1ccnc(Cl)c1)CC2
7.00 to 8.00
CC(C)(C)NC(=O)N1CCn2nc(-c3cncnc3)c(C(N)=O)c2C1
5.70 to 7.00
NC(=O)c1c(-c2cccc(F)c2)nn2c1CN(C(=O)NC1(C(F)(F)F)CC1)CC2
7.00 to 8.00

Query: Name the recorded pIC50 for CC(C)(C)NC(=O)N1CCn2nc(-c3cccc(C#N)c3)c(C(N)=O)c2C1 .
Reply: 7.00 to 8.00

Query: Name the recorded pIC50 for CC(C)(NC(=O)N1CCn2nc(-c3ccc(F)c(Cl)c3)c(C(N)=O)c2C1)C(=O)NC1CC1 .
Reply: 7.00 to 8.00

Query: Name the recorded pIC50 for NC(=O)c1c(-c2ccc(Cl)c(Cl)c2)nn2c1CN(C(=O)NC1CC(C(F)F)C1)CC2 (stereo not shown) [Compound 254] .
Reply: 8.00 to 11.00

Query: Name the recorded pIC50 for CC1(C)CC(NC(=O)N2CCn3nc(-c4ccc(F)c(Cl)c4)c(C(N)=O)c3C2)C1 .
Reply: 8.00 to 11.00

Query: Name the recorded pIC50 for CC(CF)(CF)NC(=O)N1CCn2nc(-c3ccc(F)c(Cl)c3)c(C(N)=O)c2C1 .
Reply: 8.00 to 11.00

Query: Name the recorded pIC50 for CC(C)(NC(=O)N1CCn2nc(-c3ccc(Cl)c(Cl)c3)c(C(N)=O)c2C1)c1ccc(C#N)cc1 .
Reply: 8.00 to 11.00

Query: Name the recorded pIC50 for CC1CC(NC(=O)N2CCn3nc(-c4cccc(Cl)c4)c(C(N)=O)c3C2)C1 (single isomer, unassigned) [Compound 250] .
Reply: 8.00 to 11.00

Query: Name the recorded pIC50 for NC(=O)c1c(-c2ccc(Cl)c(Cl)c2)nn2c1CN(C(=O)N[C@H]1C[C@@H](OC(F)(F)F)C1)CC2 .
Reply: 8.00 to 11.00

Query: Name the recorded pIC50 for NC(=O)c1c(-c2cccc(F)c2)nn2c1CN(C(=O)Nc1cc(F)cc(F)c1F)CC2 .
Reply: 7.00 to 8.00

Query: Name the recorded pIC50 for CC1(NC(=O)N2Cc3c(C(N)=O)c(-c4ccc(F)c(Cl)c4)nn3CC2C2CC2)CC(F)(F)C1 (single isomer, unassigned) [Compound 349] .
Reply: 7.00 to 8.00
